Tested on: DMS-114 complex spheroids with HUVEC/MSC, growth % test/control
assay.procedure: Anticancer human tumor DMS-114 cell line growth inhibition [AhR];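 note: spheroids exposed to agents for 7 days before readout; 100% = DMSO vehicle control wells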
condition.summary: second compound 1 µM; first compound 0.0949 µM; active compounds read low
Recorded viability, T/C, one value per entry.
reported.metric: viability, T/C (%)

compound	reported.metric	measured.result
Nc1ncn(C2CC(O)C(CO)S2)c(=O)n1 (stereo unspecified) + CC(CO)NC(=O)c1cc(-c2ccc(Cl)cc2)nn(-c2cnn(C)c2)c1=O	viability, T/C	80
CCN(c1cc(-c2ccc(CN3CCOCC3)cc2)cc(C(=O)NCc2c(C)cc(C)[nH]c2=O)c1C)C1CCOCC1 + Cc1ccccc1N=Nc1ccc(NC(=O)c2ccnn2C)c(C)c1	viability, T/C	110
CC(C)CC(NC(=O)C(Cc1ccccc1)NC(=O)c1cnccn1)B(O)O (stereo unspecified) + CC(CO)NC(=O)c1cc(-c2ccc(Cl)cc2)nn(-c2cnn(C)c2)c1=O	viability, T/C	0.11
CCc1c2c(nc3ccc(O)cc13)-c1cc3c(c(=O)n1C2)COC(=O)[C@]3(O)CC + Cc1cncc(-c2nc(NCCc3c[nH]c4ccccc34)c3ncn(C(C)C)c3n2)c1	viability, T/C	9.97
Nc1ncn(C2CC(O)C(CO)S2)c(=O)n1 (stereo unspecified) + Cc1cncc(-c2nc(NCCc3c[nH]c4ccccc34)c3ncn(C(C)C)c3n2)c1	viability, T/C	73
O=C(C=Cn1cnc(-c2cc(C(F)(F)F)cc(C(F)(F)F)c2)n1)NNc1cnccn1 + Cc1cncc(-c2nc(NCCc3c[nH]c4ccccc34)c3ncn(C(C)C)c3n2)c1	viability, T/C	65.3
